These data points were gathered from patent US5624923A.

target: Rat Kidney Medullary V2 Receptors (Rattus norvegicus); construct: Medullary tissues from rat kidneys are dissected out; from tissue; host or cells: rat kidney medulla membranes; test: Binding Assay to Rat Kidney Medullary V2 Receptors
Sequence (Q00788 whole entry): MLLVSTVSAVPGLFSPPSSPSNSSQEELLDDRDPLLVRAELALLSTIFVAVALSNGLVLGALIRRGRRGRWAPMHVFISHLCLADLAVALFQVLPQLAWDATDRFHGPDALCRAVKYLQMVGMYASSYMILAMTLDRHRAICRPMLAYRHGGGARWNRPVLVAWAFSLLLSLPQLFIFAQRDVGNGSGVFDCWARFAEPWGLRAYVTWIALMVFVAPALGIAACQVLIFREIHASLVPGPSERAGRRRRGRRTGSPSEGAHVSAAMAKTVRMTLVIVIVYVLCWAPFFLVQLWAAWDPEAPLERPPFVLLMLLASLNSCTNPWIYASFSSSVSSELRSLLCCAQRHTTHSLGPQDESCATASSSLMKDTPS
pIC50: −log10 of the molar value.

chem_smiles: O=C(c1ccc(NP(=O)(Oc2ccccc2)Oc2ccccc2)cc1)N1Cc2cccn2Cc2ccccc21
pIC50: 5.49

* * *

test system: Vasopressin V1; experiment: Vasopressin V1 Antagonist Activity in Conscious Rats (vasopressin vasopressor response); format: in vivo, rat; details: 10 mg/kg i.v., VAS 0.02 i.u./kg, 60 min, SHR
Entries annotated with measured % Inhibition

chem_smiles: Cc1ccccc1NC(=O)Nc1ccc(C(=O)N2Cc3cccn3Cc3ccccc32)cc1
test_target: Vasopressin V1
% Inhibition, %: 30
//
chem_smiles: O=C(Nc1ccc(C(=O)N2Cc3cccn3Cc3ccccc32)cc1)c1ccccc1F
test_target: Vasopressin V1
% Inhibition, %: 58
//
chem_smiles: O=C(Cc1ccccc1F)Nc1ccc(C(=O)N2Cc3cccn3Cc3ccccc32)cc1
test_target: Vasopressin V1
% Inhibition, %: 79
//
chem_smiles: O=C(Nc1ccc(C(=O)N2Cc3cccn3Cc3ccccc32)cc1)c1ccc(Cl)cc1Cl
test_target: Vasopressin V1
% Inhibition, %: 45
